# Protocol Text: inhibitors of TNFa-induced NFkB p65 translocation, primary screen, imaging, HUVEC, MLSMR starter and 10KST1 sets (AID 438);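 note: compound added about 3h40 before a 20 min TNFalpha stimulation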
# Run Conditions: HUVEC TNFa-induced p65 nuclear translocation; measured here: nuclei count (cytotoxicity indicator), at 2.08 µM
Outcome Measure: cell count
Quick one: just the number, no unit, thanks!

Solved entries:
[[record]]
chemical_string = "O=C(NCCCNC(=O)c1ccccn1)c1ccccn1"
experimental_result = 711

[[record]]
chemical_string = "COc1ccc(Oc2nc(Oc3ccc(OC)cc3)nc(Oc3ccc(OC)cc3)n2)cc1"
experimental_result = 320

[[record]]
chemical_string = "CCOC(=O)NC(Nc1sc2c(c1C(=O)OC)CCN(C)C2)(C(F)(F)F)C(F)(F)F"
experimental_result = 614

[[record]]
chemical_string = "COc1ccc(S(=O)(=O)Nc2ccc(F)c(Cl)c2)cc1OC"
experimental_result = 657


(Q) Which cell count is reported for this compound? `Cc1cc(C)c(NC(=O)CSc2nnc(-c3ccncc3)n2Cc2ccco2)c(C)c1`
(A) 412
